Biological target: HLA-A2.1 (Homo sapiens, UniProt P04439, D140Y/D185E/D98H/E176V/E277Q/G131W/G231S/I119V/I121R/I166T/I218V/L300P/L318F/N151K/N90K/P208A/P217A/Q86G/Q94H/R138H/R169H/T345S)
Construct: Peptide-induced stabilization of HLA-A2.1 molecules on T2 cells; endogenous in cells; host or cells: T2 cells
Assay: HLA Class I stabilization assay on T2 cells
Conditions: 20 mg/ml peptide, 18-20 hours, MA2.1 staining, >1 indicates binding
Assign HLA-A2.1 Binding (MFI of T2 cells loaded with peptide / MFI of T2 cells with no peptide) to each entry below.
One number for each entry, in X-Fold increase.

Sequence string | Scale unit | Measured result
AGYLMELCM (cyclin-derived polypeptide) [SEQ ID NO:2, tumor-derived cyclin B1 9-mer peptide] | X-Fold increase | 1.48
AKYLMELTML (cyclin-derived polypeptide) [SEQ ID NO:8, human (HeLa) cyclin B1 peptide from the database] | X-Fold increase | 2.25
AGYLMELCC (cyclin-derived polypeptide) [SEQ ID NO:4, tumor-derived cyclin B1 9-mer peptide] | X-Fold increase | 1.61

Quick one: give me HLA-A2.1 Binding (MFI of T2 cells loaded with peptide / MFI of T2 cells with no peptide) for each item below, same order please.
1. AGYLMELCFA (cyclin-derived polypeptide) [SEQ ID NO:6, tumor-derived cyclin B1 10-mer peptide]
2. AGYLMELCMA (cyclin-derived polypeptide) [SEQ ID NO:5, tumor-derived cyclin B1 10-mer peptide]
3. AGYLMELCF (cyclin-derived polypeptide) [SEQ ID NO:3, tumor-derived cyclin B1 9-mer peptide]
4. AGYLMELCV (cyclin-derived polypeptide) [SEQ ID NO:1, tumor-derived cyclin B1 9-mer peptide]
5. AKYLMELTM (cyclin-derived polypeptide) [SEQ ID NO:7, human (HeLa) cyclin B1 peptide from the database]

Found:
2.08
1.58
1.42
1.60
2.28
